- Test system: IGROV-1
- Assay remarks: NCI tumour cell line growth inhibition, 48 h
Among all 57,000 sequences or so, about 3,700 (6.5%) were called active. Not all results are given here. Entries with a potency or affinity are not part of this list.

| Substance | GI50 / µM |
| --- | --- |
| [Bis(aminomethyl)ethylmethylsilane]tetrachloroplatinum(IV), CHEMBL2146192 | 16 |
| [Bis(aminomethyl)diethylsilane]tetrachloroplatinum(IV), CHEMBL2146203 | 15.5 |
| [Bis(aminomethyl)dimethylsilane]tetrachloroplatinum(IV), CHEMBL2146190 | 15.4 |

Values were extracted from ChEMBL document CHEMBL1201862.
